system.tested: T1, UM-Pif1ΔN (unmodified) (Saccharomyces cerevisiae, UniProt P07271 234-859, del1-233)
T1 sequence: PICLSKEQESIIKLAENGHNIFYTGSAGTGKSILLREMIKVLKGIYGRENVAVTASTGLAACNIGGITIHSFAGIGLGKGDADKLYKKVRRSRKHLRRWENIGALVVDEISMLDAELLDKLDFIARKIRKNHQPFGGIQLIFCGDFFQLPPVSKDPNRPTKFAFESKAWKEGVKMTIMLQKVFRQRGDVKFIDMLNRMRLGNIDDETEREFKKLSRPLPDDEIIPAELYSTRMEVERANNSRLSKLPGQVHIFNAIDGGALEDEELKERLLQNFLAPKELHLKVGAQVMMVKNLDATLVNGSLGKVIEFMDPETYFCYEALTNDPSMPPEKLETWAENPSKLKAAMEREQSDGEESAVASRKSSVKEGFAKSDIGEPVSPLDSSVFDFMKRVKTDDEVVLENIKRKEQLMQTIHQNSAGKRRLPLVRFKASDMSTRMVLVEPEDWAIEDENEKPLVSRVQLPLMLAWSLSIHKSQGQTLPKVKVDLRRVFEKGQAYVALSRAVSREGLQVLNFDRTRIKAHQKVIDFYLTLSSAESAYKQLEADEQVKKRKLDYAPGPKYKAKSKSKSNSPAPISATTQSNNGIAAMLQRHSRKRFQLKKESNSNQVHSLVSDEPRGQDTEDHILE
test.protocol: BLI
property.name: Kd (nM)
Write it as a number; the unit nM goes unstated.

-- ask Fill in: Kd of TTTTTTTTTTTTTTTTTTTTTTTTTGTGTCACTCACATAGCGTTC (ssDNA) [T1 45-nt ssDNA] is ___
-- reply 14.1
